System: LU-65 (Non-Small Cell Lung Carcinoma)
measurement.description: combination Emax (second highest fraction inhibited in the dose matrix, 72 h); higher = more inhibition; extreme values may be limits of the assay

molecule | combination Emax
CC1(C)CCC(CN2CCN(c3ccc(C(=O)NS(=O)(=O)c4ccc(NCC5CCOCC5)c([N+](=O)[O-])c4)c(Oc4cnc5[nH]ccc5c4)c3)CC2)=C(c2ccc(Cl)cc2)C1 [Venetoclax] + CCN(CCO)CCCOc1ccc2c(Nc3cc(CC(=O)Nc4cccc(F)c4)[nH]n3)ncnc2c1 [AZD2811] (first compound max 1 µM, 7x7, partner max 1 µM) | 0.249
CC1(C)CCC(CN2CCN(c3ccc(C(=O)NS(=O)(=O)c4ccc(NCC5CCOCC5)c([N+](=O)[O-])c4)c(Oc4cnc5[nH]ccc5c4)c3)CC2)=C(c2ccc(Cl)cc2)C1 [Venetoclax] + Cc1cc2ncnn2cc1Nc1ncc2c(n1)n(C1CCOCC1)c(=O)n2C [AZD7648] (first compound max 1 µM, 7x7, partner max 10 µM) | 0.378
COc1nnc2ccc(N3CCC(c4ccc(OCCN5CCN(C)C(=O)[C@H]5C)cc4)CC3)nn12 [AZD5153] + C[C@@H]1COCCN1C2=NC(=NC(=C2)C3(CC3)[S@](=N)(=O)C)C4=C5C=CNC5=NC=C4 [AZD6738] (first compound max 1 µM, 7x7, partner max 10 µM) | 0.734
Cc1c2c(nn1C)CSCc1cc(n(C)n1)CSc1cc(c3ccccc3c1)OCCCc1c(C(=O)O)n(C)c3c-2c(Cl)ccc13 [AZD5991] + Cn1cnc2c(F)c(Nc3ccc(Br)cc3Cl)c(C(=O)NOCCO)cc21 [Selumetinib] (first compound max 1 µM, 7x7, partner max 3 µM) | 0.716

* * *

The entries below are paired with their reported Bliss excess.
System: MIA-PaCa-2 (Pancreatic Carcinoma)
measurement.description: Bliss excess, mean over the matrix (fraction); higher = more synergy
result.type: Bliss excess

compound | endpoint.value
COc1cccc(OCCCN)c1-c1cc(Nc2cnc(C#N)cn2)n[nH]1 [Prexasertib] + Cc1cc2ncnn2cc1Nc1ncc2c(n1)n(C1CCOCC1)c(=O)n2C [AZD7648] (first compound max 1 µM, 7x7, partner max 10 µM) | -0.0172
CC1(C)CCC(CN2CCN(c3ccc(C(=O)NS(=O)(=O)c4ccc(NCC5CCOCC5)c([N+](=O)[O-])c4)c(Oc4cnc5[nH]ccc5c4)c3)CC2)=C(c2ccc(Cl)cc2)C1 [Venetoclax] + C=CCn1c(=O)c2cnc(Nc3ccc(N4CCN(C)CC4)cc3)nc2n1-c1cccc(C(C)(C)O)n1 [AZD1775] (first compound max 1 µM, partner max 1 µM) | 0.0944
CC(=O)Nc1cccc(-n2c(=O)n(C3CC3)c(=O)c3c(Nc4ccc(I)cc4F)n(C)c(=O)c(C)c32)c1 [Trametinib] + Cc1nc(-c2cn3c(n2)-c2ccc(-c4cnn(C(C)(C)C(N)=O)c4)cc2OCC3)n(C(C)C)n1 [Taselisib] (first compound max 1 µM, 7x7, partner max 10 µM) | 0.148
CS(=O)(=O)CCNCc1ccc(-c2ccc3ncnc(Nc4ccc(OCc5cccc(F)c5)c(Cl)c4)c3c2)o1 [Lapatinib] + C[C@@H](Oc1cc(-c2cnn(C3CCNCC3)c2)cnc1N)c1c(Cl)ccc(F)c1Cl [Crizotinib] (first compound max 10 µM, 7x7, partner max 10 µM) | -0.0517
CN(C)CCCOc1ccc(-c2ccc3ncc4c(c3c2)n(C2CCOCC2)c(=O)n4C)cn1 [AZD0156] + C=CCn1c(=O)c2cnc(Nc3ccc(N4CCN(C)CC4)cc3)nc2n1-c1cccc(C(C)(C)O)n1 [AZD1775] (first compound max 1 µM, partner max 1 µM) | -0.0303
CCN(CCO)CCCOc1ccc2c(Nc3cc(CC(=O)Nc4cccc(F)c4)[nH]n3)ncnc2c1 [AZD2811] + C[C@@H]1COCCN1C2=NC(=NC(=C2)C3(CC3)[S@](=N)(=O)C)C4=C5C=CNC5=NC=C4 [AZD6738] (first compound max 1 µM, 7x7, partner max 10 µM) | -0.0797
CN(CCO)CC[C@H](CSc1ccccc1)Nc1ccc(S(=O)(=O)NC(=O)c2ccc(N3CCC([C@@H](O)c4ccccc4-c4ccc(Cl)cc4)CC3)cc2)cc1S(=O)(=O)C(F)(F)F [AZD4320] + CN(C)CCCOc1ccc(-c2ccc3ncc4c(c3c2)n(C2CCOCC2)c(=O)n4C)cn1 [AZD0156] (first compound max 1 µM, 7x7, partner max 1 µM) | -0.0626
C=CCn1c(=O)c2cnc(Nc3ccc(N4CCN(C)CC4)cc3)nc2n1-c1cccc(C(C)(C)O)n1 [AZD1775] + C1CN(CCC1(C(=O)N[C@@H](CCO)C2=CC=C(C=C2)Cl)N)C3=NC=NC4=C3C=CN4 [Capivasertib] (first compound max 3 µM, partner max 3 µM) | -0.0471
Cn1cnc2c(F)c(Nc3ccc(Br)cc3Cl)c(C(=O)NOCCO)cc21 [Selumetinib] + C=CCn1c(=O)c2cnc(Nc3ccc(N4CCN(C)CC4)cc3)nc2n1-c1cccc(C(C)(C)O)n1 [AZD1775] (first compound max 10 µM, partner max 1 µM) | 0.0552

* * *

Tested on: BT-549 (Breast Carcinoma)
measurement.description: Bliss excess, mean over the matrix (fraction); higher = more synergy
result.type: Bliss excess

molecule | endpoint.value
CS(=O)(=O)CCNCc1ccc(-c2ccc3ncnc(Nc4ccc(OCc5cccc(F)c5)c(Cl)c4)c3c2)o1 [Lapatinib] + Cn1cnc2c(F)c(Nc3ccc(Br)cc3Cl)c(C(=O)NOCCO)cc21 [Selumetinib] (first compound max 10 µM, 7x7, partner max 10 µM) | -0.0473
CN(CCO)CC[C@H](CSc1ccccc1)Nc1ccc(S(=O)(=O)NC(=O)c2ccc(N3CCC([C@@H](O)c4ccccc4-c4ccc(Cl)cc4)CC3)cc2)cc1S(=O)(=O)C(F)(F)F [AZD4320] + C[C@@H]1COCCN1C2=NC(=NC(=C2)C3(CC3)[S@](=N)(=O)C)C4=C5C=CNC5=NC=C4 [AZD6738] (first compound max 1 µM, 7x7, partner max 10 µM) | -0.0239
CC(=O)c1c(C)c2cnc(Nc3ccc(N4CCNCC4)cn3)nc2n(C2CCCC2)c1=O [Palbociclib] + Cc1c2c(nn1C)CSCc1cc(n(C)n1)CSc1cc(c3ccccc3c1)OCCCc1c(C(=O)O)n(C)c3c-2c(Cl)ccc13 [AZD5991] (first compound max 10 µM, 7x7, partner max 1 µM) | 0.0106
C=CCn1c(=O)c2cnc(Nc3ccc(N4CCN(C)CC4)cc3)nc2n1-c1cccc(C(C)(C)O)n1 [AZD1775] + O=C(c1cc(Cc2n[nH]c(=O)c3ccccc23)ccc1F)N1CCN(C(=O)C2CC2)CC1 [Olaparib] (first compound max 1 µM, partner max 10 µM) | -0.0528
CC(=O)Nc1cccc(-n2c(=O)n(C3CC3)c(=O)c3c(Nc4ccc(I)cc4F)n(C)c(=O)c(C)c32)c1 [Trametinib] + Cc1nc(-c2cn3c(n2)-c2ccc(-c4cnn(C(C)(C)C(N)=O)c4)cc2OCC3)n(C(C)C)n1 [Taselisib] (first compound max 1 µM, 7x7, partner max 10 µM) | 0.0203
CCN(CCO)CCCOc1ccc2c(Nc3cc(CC(=O)Nc4cccc(F)c4)[nH]n3)ncnc2c1 [AZD2811] + O=C(c1cc(Cc2n[nH]c(=O)c3ccccc23)ccc1F)N1CCN(C(=O)C2CC2)CC1 [Olaparib] (first compound max 1 µM, 7x7, partner max 10 µM) | -0.0015
NC1(C(=O)N[C@@H](CCO)c2ccc(Cl)cc2)CCN(c2ncnc3[nH]ccc23)CC1 [Capivasertib] + CC(C)n1c(=O)n(C)c2cnc3cc(F)c(-c4ccc(OCCCN5CCCCC5)nc4)cc3c21 [AZD1390] (first compound max 10 µM, 7x7, partner max 0.3 µM) | -0.071
COc1cc2c(cc1OCCCCCOc1cc3c(cc1OC)C(=O)N1C=C(C)C[C@H]1C=N3)N=C[C@@H]1CC(C)=CN1C2=O [SG3199] + O=C(c1cc(Cc2n[nH]c(=O)c3ccccc23)ccc1F)N1CCN(C(=O)C2CC2)CC1 [Olaparib] (first compound max 0.001 µM, 7x7, partner max 10 µM) | -0.041
CN(CCO)CC[C@H](CSc1ccccc1)Nc1ccc(S(=O)(=O)NC(=O)c2ccc(N3CCC([C@@H](O)c4ccccc4-c4ccc(Cl)cc4)CC3)cc2)cc1S(=O)(=O)C(F)(F)F [AZD4320] + C1CN(CCC1(C(=O)N[C@@H](CCO)C2=CC=C(C=C2)Cl)N)C3=NC=NC4=C3C=CN4 [Capivasertib] (first compound max 1 µM, 7x7, partner max 3 µM) | -0.0094

* * *

Tested on: TE-1 (Esophageal Squamous Cell Carcinoma)
measurement.description: combination Emax (second highest fraction inhibited in the dose matrix, 72 h); higher = more inhibition; extreme values may be limits of the assay
result.type: combination Emax

compound | endpoint.value
Cn1cnc2c(F)c(Nc3ccc(Br)cc3Cl)c(C(=O)NOCCO)cc21 [Selumetinib] + C[C@@H]1COCCN1C2=NC(=NC(=C2)C3(CC3)[S@](=N)(=O)C)C4=C5C=CNC5=NC=C4 [AZD6738] (first compound max 10 µM, 7x7, partner max 10 µM) | 0.585
CCN(CCO)CCCOc1ccc2c(Nc3cc(CC(=O)Nc4cccc(F)c4)[nH]n3)ncnc2c1 [AZD2811] + O=C(c1cc(Cc2n[nH]c(=O)c3ccccc23)ccc1F)N1CCN(C(=O)C2CC2)CC1 [Olaparib] (first compound max 1 µM, 7x7, partner max 10 µM) | 0.105
CCN(CCO)CCCOc1ccc2c(Nc3cc(CC(=O)Nc4cccc(F)c4)[nH]n3)ncnc2c1 [AZD2811] + C=CCn1c(=O)c2cnc(Nc3ccc(N4CCN(C)CC4)cc3)nc2n1-c1cccc(C(C)(C)O)n1 [AZD1775] (first compound max 1 µM, partner max 1 µM) | 0.601
